Test system: Human gelatinase-A (MMP-2) (Homo sapiens, UniProt P08253)
Sequence (P08253 110-660): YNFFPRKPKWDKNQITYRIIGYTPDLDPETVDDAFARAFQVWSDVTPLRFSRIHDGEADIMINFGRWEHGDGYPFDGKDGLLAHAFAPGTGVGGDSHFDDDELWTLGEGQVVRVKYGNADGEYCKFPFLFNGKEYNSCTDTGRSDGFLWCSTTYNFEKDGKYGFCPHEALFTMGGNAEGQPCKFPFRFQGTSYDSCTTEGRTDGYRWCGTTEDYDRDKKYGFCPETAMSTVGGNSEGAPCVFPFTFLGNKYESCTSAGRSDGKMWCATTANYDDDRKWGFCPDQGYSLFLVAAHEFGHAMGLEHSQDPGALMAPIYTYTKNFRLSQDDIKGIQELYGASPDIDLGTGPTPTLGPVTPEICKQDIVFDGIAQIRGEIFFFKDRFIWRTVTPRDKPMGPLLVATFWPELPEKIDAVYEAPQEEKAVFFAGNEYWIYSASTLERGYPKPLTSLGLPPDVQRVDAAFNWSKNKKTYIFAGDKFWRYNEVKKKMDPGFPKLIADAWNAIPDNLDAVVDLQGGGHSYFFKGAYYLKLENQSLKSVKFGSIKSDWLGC
Test description: Biochemical assay (Protocol A), Ki at steady state, MMP-2
Recorded conditions: preincubation, 37° C., pH=7.4, read-out: Ki at steady state (Ki*) for inhibition of MMP-2
Method: Human gelatinase-A (MMP-2) was obtained as pro-enzyme (72 kDa) and was activated with 1 mM 4-aminophenylmercuric acetate for 30 min at 37° C. immediately prior to use. […] The substrate was the commercial quenched-fluorescence peptide Mca-Pro-Leu-Gly-Leu-Dpa-Ala-Arg-NH2, that is (7-methoxycoumarin4-yl)Acetyl-Pro-Leu-Glv-Leu-(3-[2,4-dinitrophenyl]-L-2,3-diamino-propionyl)-Ala-Arg-NH2 (C. G. Knight et al., FEBS Lett.296:263, 1992). […]
Test readout: Ki (µM)
Please reply with the bare figure in µM and do not write the unit itself.

Ask: # input molecule: COc1ccc(CCC[C@@H](C(=O)N[C@H](C)C2CCCCC2)[C@H](N)C(=O)NO)cc1 [Example 32] ; wanted: its Ki
Result: 0.037

Ask: Can you handle CC(C)C[C@@H](C(=O)N1CCCCC1)[C@H](NC(=O)OC(C)(C)C)C(=O)NO [Example 2] next?
Result: 2.8

Ask: Can you handle CN(C)[C@H](C(=O)NO)[C@@H](CC1CCCC1)C(=O)N1CCCCC1 [Example 30] next?
Result: 0.025

Ask: Can you handle COc1ccc(CCC[C@@H](C(=O)N2CCOCC2)[C@H](N)C(=O)NO)cc1 [Example 16] next?
Result: 0.094

Ask: Can you handle COc1ccc(CCC[C@@H](C(=O)N2CCC2)[C@H](N)C(=O)NO)cc1 [Example 28] next?
Result: 0.6

Ask: Can you handle CC(C)C[C@@H](C(=O)N1CCCCC1)[C@H](N)C(=O)NO [Example 3] next?
Result: 0.29

Ask: Can you handle COc1ccc(CCC[C@@H](C(=O)N2CCOCC2)[C@@H](C(=O)NO)N(C)C)cc1 [Example 19] next?
Result: 0.23

Ask: Can you handle CC(C)C[C@@H](C(=O)N1CCOCC1)[C@H](N)C(=O)NO [Example 10] next?
Result: 0.34

Ask: Can you handle CNC(=O)[C@H](Cc1ccccc1)N(C)C(=O)[C@H](CC(C)C)[C@H](N)C(=O)NO [Example 44] next?
Result: 0.0023

Ask: Can you handle CN(C)[C@H](C(=O)NO)[C@@H](CC1CCCC1)C(=O)N1CCN(Cc2ccc3c(c2)OCO3)CC1 [Example 35] next?
Result: 0.008

Ask: Can you handle COc1ccc(CCC[C@@H](C(=O)N[C@@H](C)C2CCCCC2)[C@H](N)C(=O)NO)cc1 [Example 33] next?
Result: 0.46

Ask: Can you handle C[C@@H](NC(=O)[C@H](CC1CCCC1)[C@H](N)C(=O)NO)C1CCCCC1 [Example 50] next?
Result: 0.058

Ask: Can you handle COc1ccc(S(=O)(=O)N[C@H](C(=O)NO)[C@@H](CC2CCCC2)C(=O)N2CCN(Cc3ccc4c(c3)OCO4)CC2)cc1 [Example 37] next?
Result: 0.0026

Ask: Can you handle COc1ccc(CCC[C@@H](C(=O)N2CCC(C(=O)NC(C)(C)C)CC2)[C@H](N)C(=O)NO)cc1 [Example 34] next?
Result: 0.021

Ask: Can you handle COc1ccc(S(=O)(=O)N[C@H](C(=O)NO)[C@@H](CC2CCCC2)C(=O)N2CCCCC2)cc1 [Example 23] next?
Result: 0.016

Ask: Can you handle CC(C)C[C@@H](C(=O)NC(c1ccccc1)c1ccccc1)[C@H](N)C(=O)NO [Example 25] next?
Result: 0.19
